- protocol_description: soluble on expression in E. coli; label from the status in PepcDB or PDB records
parameter: soluble on expression in E. coli

| residues | obs_value |
| --- | --- |
| AASDSAQLKSAREDIKELLKTKFCHPIMVRLGWHDAGTYNKNIEEWPQRGGANGSLRFDVELKHGANAGLVNALNLLKPIKDKYSGVTYADLFQLASATAIEEAGGPKIPMKYGRVDVTEPEQCPEEGRLPDAGPPSPAQHLRDVFYRMGLNDKEIVALSGAHTLGRSRPDRSGWGKPETKYTKDGPGAPGGQSWTAQWLKFDNSYFKDIKERRDEDLLVLPTDAALFEDPSFKVYAEKYAADPEAFFKDYAEAHAKLSNLGAKFGPAEGFSLEGSPAGAAPEKFVAAKYSTGKD | soluble |
| GHHHHHHHHHHGLVPRGSHMNIQSIETYQVRLPLKTPFVTSYGRLEEKAFDLFVITDEQGNQGFGELVAFEQPDYVQETLVTERFIIQQHLIPLLLTEAIEQPQEVSTIFEEVKGHWMGKAALETAIWDLYAKRQQKSLTEFFGPTRRKIPVGISLGIQEDLPQLLKQVQLAVEKGYQRVKLKIRPGYDVEPVALIRQHFPNLPLMVDANSAYTLADLPQLQRLDHYQLAMIEQPFAADDFLDHAQLQRELKTRICLDENIRSLKDCQVALALGSCRSINLKIPRVGGIHEALKIAAFCQENDLLVWLGGMFESGVGRALNLQFASQPTFSFPGDISATERYFYEDIITEPFILEQGTMTVPQGLGIGVTLSQTNLLKYSQYQKIM | soluble |

---

- protocol_description: soluble on expression in E. coli; label from the status in PepcDB or PDB records
parameter: soluble on expression in E. coli

| residues | obs_value |
| --- | --- |
| MGKKELKRGLVVDREAQMIGVYLFEDGKTYRGIPRGKVLKKTKINAGDYVWGEVVDPNTFAIEEVEERKNLLIRPKVANVDRVIIVETLKMPEFNNYLLDNMLVVYEYFKVEPVIVFNKIDLLNEEEKKELERWIAFTGMRATTFSRLEHHHHHH | not soluble |
| MALTVSLLDKLIDSDPTTREEKDFPVSQQHMLNGLLRDLESMLNSRIGWKNIHEDFLEVRYSILNYGLPDFSSMPYSSQDGQSQLCDIVYEAIREFEPRLRNPHVQISDEKNAIDRTLRLEISATCLIDNDIHELRFNSEVEPVNLGMKLSRAK | not soluble |
| MNRYDRAITIFSPDGHLFQVEYAQEAVKKGSTAVGVRGKDCIVIGVEKKSIPALQDDRTIRKIHMIDDHVMLAFAGLSADARVLVDRARIECQSYKLTLEDPVTVAYISRYIANTKQRFTQSPGRRPFGISMLIGGFDHDGTPRLFKTEPSGAYYEYVANATGRGEKPVREYLEEQYSEENTVDEATTLKLVVKSLAQVVPPGSQNIEIAVMKKVNDELQQRVLSTEEIEALLKVVETERVAAEAEEAASKKK | not soluble |

---

- protocol_description: soluble on expression in E. coli; label from the status in PepcDB or PDB records

| residues | soluble on expression in E. coli |
| --- | --- |
| GPGSMLRLSLRRWCAAAASGSSTSTAHGSPPATTLPDFYGKSFSVSPRAWAQITRKNSEEGFTNDARYLRLAIDSGGCHGYVYKFSFEKNDEFSCEGDVAIAEVDAVSPSDEAFTGAQPSPRVVVDTLSASKLANATLDYHSELKGSAFVVVGNELVDESCACAMSFSMRKTTRQSVASSSSARGASSGDGGGHGGSGAAAPPAGSSLAANARPISRRSTTRATS | soluble |
| MQSPEKIDPTWEDSVIDSFISFVRSYDGDFTCIYKLADTVSDEYSLQKIIDFLSSTPQGKQAFQKRPQLGVVDLPKLHQLPTDTLGYVYADQMLQNNLQPLQSHEIDNDYQFFKTHITETHDLWHIVTGADTSILGEIQLEAFYVSQLYASRFWLALLAKNLLKAVIYDIELSTPYMDAISTGWVMAKQAKPLFGLEWNLLWEKPLADVRTSLNIILPVNLEHHHHHH | soluble |
| MAHHHHHHSLIISSLTNPNFKVGLPKVIAEVCDYLNTLDLNALENGRHDINDQIYMNVMEPETAEPSSKKAELHHEYLDVQVLIRGTENIEVGATYPNLSKYEDYNEADDYQLCADIDDKFTVTMKPKMFAVFYPYEPHKPCCVVNGKTEKIKKLVVKVPVKLIEG | not soluble |
| MVAQARRQGCGERLTTATAVATPATAEQGETTMETVEEFLAHSIKLEQEAALRFGQLADAMDSCGNKEVSKLFRQLADYSRMHQADAQARAGFRDIPQMEPGDFKWPGLESPEAAAIWGTDPFIGRDLALQIALEAETGAFDWYKNVLDTTDNPEIKMLAKEFVEEESGHVAELHRWIALHKAGKPLPMEIVPF | not soluble |
| MQKSIDDMINEVLAVKVEKLPKTQDFSDLQEVCASKLQIINKEMDEADRKLEETLEKRKLVEKQLEDLQEQYKVKEFAFSLQKEFQDELKKVAEEIF | not soluble |
| MADRQLLHTAHIPVRWGDMDSYGHVNNTLYFQYLEEARVAWFETLGIDLEGAAEGPVVLQSLHTYLKPVVHPATVVVELYAGRLGTSSLVLEHRLHTLEDPQGTYGEGHCKLVWVRHAENRSTPVPDSIRAAIA | soluble |
| RQVQKELGDVLVRLHNPVVLTPTTVQVTWTVDRQPQFIQGYRVMYRQTSGLQATSSWQNLDAKVPTERSAVLVNLKKGVTYEIKVRPYFNEFQGMDSESKTVRTTEE | soluble |
| MRSRERNRRPTLDELDRILTYFEQMRDRRRQEIDMLRVIVFALFSTRRQEEITRIRWDLLNESEQSALVTDMKNPGQKYGNDVWCHMPDEAWRVLQSMPKVADEVFPYNSRSVSASFTRACNFLEIEDLHFHDLRHDGVSRLFEMGWDIPKVASVSGHRDWNSMRRYTHLRGNGDPYAGWQWIERVISGPVIEAQVRVKRRAAGRAPLEHHHHHH | not soluble |
| MLAVSSAIVSSAMYILSFPGQASGITKEQVTKHMKKESFKQADIYYTSKEKSLLPLTKETLEYAVSINQIMIGYSNQKPIDIIFFLMKNRWRLTPVYWMLEHHHHHH | not soluble |
| MGLQTYNAKRSFDKTPEPKGTKAEKPGSSFVIQKHDARRLHYDFRLEMDGVLKSWAVTRGPSLDPEDKRLAVHVEDHPLSYGDFEGVIPKGQYGGGTVIVWDRGIWQPIGDAGKGYRKGHLEFELEGEKLKGRWHLVRMHGKPGESRENWLLIKGDDLEHHHHHH | not soluble |
| MGSDKIHHHHHHMYANKVKKIAAVHDLSGMGRVSLTVVIPILSSMGFQVCPLPTAVLSNHTQYPGFSFLDLTDEMPKIIAEWKKLEVQFDAIYTGYLGSPRQIQIVSDFIKDFRQPDSLIVADPVLGDNGRLYTNFDMEMVKEMRHLITKADVITPNLTELFYLLDEPYKADSTDEELKEYLRLLSDKGPQVVIITSVPVHDEPHKTSVYAYNRQGNRYWKVTCPYLPAHYPGTGDTFTSVITGSLMQGDSLPMALDRATQFILQGIRATFGYEYDNREGILLEKVLHNLDMPIQMASYELI | not soluble |
| MGSDKIHHHHHHMTYREYKEPATRAGGIIELPHRTDANRFLASLGVAERATLASHLQLVHVKSGQVLCEPGMALEHVYLPVTTVISIQYASSDGMTLEIAEIGNEGIVSPQLVGTDGASPCRVITCRDGFSYRLGARVLSNLLEESAQTRQAIFRCTHLLMAQAKQISFCSRHHVLKNQLCRWFLLAYDRSRSVEIQVTHSMLAQMLGVRRETVTDAAGDIQKMGLIRQYRSSIILVDLPGLDAQSCGCHAIIREEMKKIQAAPTSASGTLTELRS | not soluble |
| MAHHHHHHMLYHYDILKYNSNHEYNNCSYFKNTFVHFFDYIYNIKMMKEYNDLKAKICINKEFNILFNILNKMNYSFAYRDKKLIKMNDCLYHTYHIIGIKKISSIGYIFNFKNELNDNFSKVLKTKISNILSIEDIYFLFNRFFYFLLMYIRKFCCFSNKKDTNIPQNEAETFVNSVCNCKQDNCCYKIKTIVLINNIQ | not soluble |
| SSEDLAKQLASYKAQLQQVEAALSGNGENEDLLKLKKDLQEVIELTKDLLSTQPSETLASSDSFASTQPTHSWKVGDKCMAVWSEDGQCYEAEIEEIDEENGTAAITFAGYGNAEVTPLLNLKPVEEGRKAKEDSGNKPMSKKEMIAQQREYKKKKALKKAQRIKELEQEREDQKVKWQQFNNRAYSKNKKGQVKRSIFASPESVTGKVGVGTCGIADKPMTQYQDTSKYNVRHLMPQ | soluble |
| MKPWLITPERLTSEQIGLLDHFFDRGLERLHLRLPSAGEEDYSQVIEAVAACYRRRIVVHDHPRLVGRYGLCGLHLPERVWKGMTDRPQLPDGCTVSASCHAIEDIESFPFRLDYCFLSPVFDSLCKVGYAGRFSPDS | not soluble |
